Reference for the values: patent US9550782B2

study.system: human recombinant adrenergic α2A receptor (Homo sapiens, UniProt P08913)
Construct: expressed in transfected cells; host or cells: insect Sf9 cells
Sequence (P08913 whole entry): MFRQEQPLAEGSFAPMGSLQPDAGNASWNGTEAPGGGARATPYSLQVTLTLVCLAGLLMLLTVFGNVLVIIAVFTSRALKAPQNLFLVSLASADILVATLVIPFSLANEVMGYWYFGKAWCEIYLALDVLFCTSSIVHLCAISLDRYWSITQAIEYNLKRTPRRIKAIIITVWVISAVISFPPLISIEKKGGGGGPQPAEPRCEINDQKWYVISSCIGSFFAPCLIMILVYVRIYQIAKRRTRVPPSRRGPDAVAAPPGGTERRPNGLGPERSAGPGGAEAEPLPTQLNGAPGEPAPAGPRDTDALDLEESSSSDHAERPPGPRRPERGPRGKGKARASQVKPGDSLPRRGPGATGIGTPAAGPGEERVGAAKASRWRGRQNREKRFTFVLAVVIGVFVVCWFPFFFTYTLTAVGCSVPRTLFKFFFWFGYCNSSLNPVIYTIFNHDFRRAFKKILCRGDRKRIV
protocol: Radioligand binding, adrenergic α2A ([3H]MK-912)
settings: compound at 0.1 μM; [3H]MK-912; repeat datapoints each shown; 0.1 µM
measured.attribute: Percentage inhibition of ligand binding, Adrenergic α2A (0.1 μM) (%)

Would you please look over these solved cases?
INPUT: Item CN1CCc2c(c3cccc(Br)c3n2CC(O)c2ccncc2)C1 (single isomer, unassigned) [48a] with human recombinant adrenergic α2A receptor (Homo sapiens, UniProt P08913) - Percentage inhibition of ligand binding, Adrenergic α2A (0.1 μM)?
OUTPUT: 12

INPUT: Lookup: Percentage inhibition of ligand binding, Adrenergic α2A (0.1 μM) / human recombinant adrenergic α2A receptor (Homo sapiens, UniProt P08913) / Cc1ccc2c(c1)c1c(n2CC(O)c2ccccn2)CN(C)CC1 (single isomer, unassigned) [22a]
OUTPUT: 16

INPUT: Provide value of Percentage inhibition of ligand binding, Adrenergic α2A (0.1 μM) for this record tested with human recombinant adrenergic α2A receptor (Homo sapiens, UniProt P08913): Cc1ccc2c(c1)c1c(n2CC(C)(O)c2ccc(C)nc2)CCN(C)C1 (centres unmarked) [29b]
OUTPUT: 10

1: Cc1ccc2c(c1)c1c(n2CC(O)c2ccncc2)CC2CCCCN2C1 (racemic) [75a]
2: Cc1ccc2c(c1)c1c(n2CC(O)c2ccncc2)C(C)N2CCC1C2 (single isomer, unassigned) [38b]
3: CN1CCc2c(c3cccc(Br)c3n2CC(O)c2ccncc2)C1 (single isomer, unassigned) [48b]
4: CN1CCc2c(c3cc(Cl)ccc3n2CC(O)c2cccnc2)C1 (single isomer, unassigned) [7a]
5: CN1CCc2c(c3ccc(C(F)(F)F)cc3n2CC(O)c2cccnc2)C1 (single isomer, unassigned) [40a]
INPUT: Please put the entries in order of rising Percentage inhibition of ligand binding, Adrenergic α2A (0.1 μM). Please list the labels according to the requested order.
OUTPUT: 2, 4, 5, 1, 3

====

study.system: human recombinant adrenergic α2B receptor (Homo sapiens, UniProt P18089)
Construct: expressed in transfected cells; host or cells: CHO-K1
protocol: Radioligand binding, adrenergic α2B ([3H]Rauwolscine)
settings: 0.03 μM compound, 0.03 µM
Protocol: To evaluate in radioligand binding assays the activity of compounds of the invention, human recombinant adrenergic α2B receptor expressed in Chinese hamster ovary (CHO) K1 cells (Uhlen, S. et al, Eur. J. Pharmacol. 343(1):93, 1998) in a modified Tris-HCl buffer (50 mM Tris-HCl, pH 7.4, 12.5 mM MgCl2, 1 mM EDTA, 0.2% BSA) was used. […] Receptor proteins were filtered and washed, the filters were then counted to determine [3H]Rauwolscine specifically bound. […]
measured.attribute: Percentage inhibition of ligand binding, Adrenergic α2B (%)

Example entries begin here.
INPUT: Can you look up the measured Percentage inhibition of ligand binding, Adrenergic α2B of Cc1cnc2c(c1)c1c(n2CC(C)(O)c2ccc(C)nc2)CCN2CCCC12 (single isomer, unassigned) [148d] for me?
OUTPUT: 11

INPUT: What measured Percentage inhibition of ligand binding, Adrenergic α2B goes with Cc1ccc(CCn2c3c(c4cc(Cl)cnc42)C2CCCN2CC3)cn1 (single isomer, unassigned) [137b] ?
OUTPUT: 30

INPUT: Give its Percentage inhibition of ligand binding, Adrenergic α2B value. Item: C/C(=C\n1c2c(c3cc(C)ccc31)C1CCCCN1CC2)c1ccc(F)cc1 (single isomer, unassigned) [199b]
OUTPUT: 27

INPUT: Which Percentage inhibition of ligand binding, Adrenergic α2B value is on record for Cc1cnc2c(c1)c1c(n2CC(O)c2ccc(F)cc2)CCN(C)C1 (single isomer, unassigned) [136a] ?
OUTPUT: 34

INPUT: Please look up its Percentage inhibition of ligand binding, Adrenergic α2B: Cc1cnc2c(c1)c1c(n2CC(C)(O)c2ccc(C)nc2)CCN2CCCC12 (single isomer, unassigned) [148a]
OUTPUT: 52

1: Cc1ccc2c(c1)c1c(n2CC(O)c2ccncc2Cl)CCN(C)C1 (single isomer, unassigned) [135a]
2: C/C(=C\n1c2c(c3cc(C)ccc31)C1CCCCN1CC2)c1ccc(F)cc1 (single isomer, unassigned) [199a]
3: Cc1cnc2c(c1)c1c(n2CC(C)(O)c2ccc(F)cc2)CCN(C)C1 (single isomer, unassigned) [138b]
4: Cc1cnc2c(c1)c1c(n2CC(C)(O)c2ccc(C)nc2)CCN2CCCC12 (single isomer, unassigned) [148c]
INPUT: Ascending sort, Percentage inhibition of ligand binding, Adrenergic α2B. Reply with the item labels sorted in the order that was asked for.
OUTPUT: 4, 3, 1, 2

I: Cc1cnc2c(c1)c1c(n2CC(N)c2ccc(C#N)cc2)CCNC1 (single isomer, unassigned) [160a]
II: Cc1ccc2c(c1)c1c(n2C(C)C(O)c2ccncc2)CCN(C)C1 (stereo not shown) [127b]
III: Cc1cnc2c(c1)c1c(n2CC(C)(O)c2ccc(F)cc2)CCN(C)C1 (single isomer, unassigned) [138a]
INPUT: Put the items in sequence by Percentage inhibition of ligand binding, Adrenergic α2B, from largest down. Answer with the labels in sequence, matching the requested order.
OUTPUT: III, I, II

====

study.system: human recombinant adrenergic α2A receptor (Homo sapiens)
Construct: expressed in transfected cells; host or cells: insect Sf9 cells
protocol: Radioligand binding, adrenergic α2A ([3H]MK-912)
settings: compound at 0.1 μM; [3H]MK-912; 0.1 µM
measured.attribute: Percentage inhibition of ligand binding, Adrenergic α2A (%)

Study these solved cases before continuing.
INPUT: Would you mind telling me what Percentage inhibition of ligand binding, Adrenergic α2A value was observed for OCCN1CCc2c(c3cc(Cl)ccc3n2CC(O)c2ccncc2)C1 (single isomer, unassigned) [II-93b] ?
OUTPUT: 4

INPUT: // Percentage inhibition of ligand binding, Adrenergic α2A lookup, key: OCCN1CCc2c(c3cc(Cl)ccc3n2CC(O)c2ccncc2)C1 (single isomer, unassigned) [II-93a]
OUTPUT: 7

I: Cc1cnc2c(c1)c1c(n2CC(O)c2ccc(C)nc2)CCN(C)C1 (single isomer, unassigned) [II-100b]
II: OCCN1CCc2c(c3cc(Cl)ccc3n2CC(O)c2cccnc2)C1 (single isomer, unassigned) [II-94a]
III: Cc1cnc2c(c1)c1c(n2CC(O)c2ccc(C)nc2)CCN(C)C1 (single isomer, unassigned) [II-100a]
IV: CC(Cn1c2c(c3ccccc31)CN(C)CC2)c1ccc(F)cc1 (single isomer, unassigned) [272b]
V: CC(Cn1c2c(c3ccccc31)CN(C)CC2)c1ccc(F)cc1 (single isomer, unassigned) [272a]
INPUT: # sort list by recorded Percentage inhibition of ligand binding, Adrenergic α2A, greatest to least Answer format: list of labels, ordered as asked.
OUTPUT: IV, V, III, I, II

====

study.system: rat adrenergic α1B receptor (Rattus norvegicus)
Construct: rat adrenergic α1B receptor obtained from Wistar Rat liver; from tissue; host or cells: Wistar rat liver
Sequence (P15823 whole entry): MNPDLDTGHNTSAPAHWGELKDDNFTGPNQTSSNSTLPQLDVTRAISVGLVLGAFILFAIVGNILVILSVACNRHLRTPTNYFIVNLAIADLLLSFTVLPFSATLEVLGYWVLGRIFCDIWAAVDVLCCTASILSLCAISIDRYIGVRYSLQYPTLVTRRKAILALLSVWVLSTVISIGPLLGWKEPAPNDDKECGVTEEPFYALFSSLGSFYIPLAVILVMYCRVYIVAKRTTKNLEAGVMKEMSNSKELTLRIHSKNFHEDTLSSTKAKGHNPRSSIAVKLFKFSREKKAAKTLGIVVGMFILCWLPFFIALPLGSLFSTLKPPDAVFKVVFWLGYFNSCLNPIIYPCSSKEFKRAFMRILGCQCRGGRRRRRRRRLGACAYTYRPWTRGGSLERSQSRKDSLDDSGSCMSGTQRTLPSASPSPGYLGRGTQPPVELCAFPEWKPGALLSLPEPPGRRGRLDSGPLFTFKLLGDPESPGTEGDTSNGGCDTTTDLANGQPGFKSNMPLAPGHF
protocol: Radioligand binding, adrenergic α1B ([3H]Prazosin)
Design: species or system Wistar Rat
settings: read-out: Percentage inhibition of ligand binding, Adrenergic α1B (0.1 μM), compound at 0.1 μM, repeat datapoints each shown
measured.attribute: inhibition at 0.1 µM (%)

INPUT: Please look up its inhibition at 0.1 µM: Cc1ccc2c(c1)c1c(n2CC(O)c2ccc(F)cc2)CCN(C)C1 (centres unmarked)
OUTPUT: 86

A: Cc1ccc2c(c1)c1c(n2CC(O)c2ccc(C#N)cc2)CCNC1 (centres unmarked)
B: Cc1ccc2c(c1)c1c(n2CC(N=[N+]=[N-])c2ccncc2)CCN(C)C1 (racemic)
C: Cc1cnc2c(c1)c1c(n2CCc2ccc(C)nc2)CCN2CCCC12 (centres unmarked)
D: CCC(O)(Cn1c2c(c3cc(C)ccc31)CN(C)CC2)c1ccc(F)cc1 (centres unmarked)
INPUT: Order the entries by their reported inhibition at 0.1 µM, beginning at the minimum. # format: label list in the order the request specifies
OUTPUT: A, B, D, C

====

study.system: human recombinant adrenergic α2B receptor (Homo sapiens, UniProt P18089)
Construct: expressed in transfected cells; host or cells: CHO-K1
Sequence (P18089 1-450): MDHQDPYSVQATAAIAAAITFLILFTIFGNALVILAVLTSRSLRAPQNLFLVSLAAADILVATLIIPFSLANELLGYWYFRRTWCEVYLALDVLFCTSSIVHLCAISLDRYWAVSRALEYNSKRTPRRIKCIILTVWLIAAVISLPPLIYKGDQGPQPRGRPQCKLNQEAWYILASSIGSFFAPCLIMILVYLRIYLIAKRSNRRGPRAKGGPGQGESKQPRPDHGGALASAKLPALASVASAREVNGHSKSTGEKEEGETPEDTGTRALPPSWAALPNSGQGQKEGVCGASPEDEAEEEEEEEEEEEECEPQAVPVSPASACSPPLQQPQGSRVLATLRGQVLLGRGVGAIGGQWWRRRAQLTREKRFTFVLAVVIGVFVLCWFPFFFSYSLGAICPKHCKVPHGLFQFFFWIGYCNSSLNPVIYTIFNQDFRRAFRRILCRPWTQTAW
protocol: Radioligand binding, adrenergic α2B ([3H]Rauwolscine)
settings: read-out: Percentage inhibition of ligand binding, Adrenergic α2B (0.03 μM), compound at 0.03 μM, repeat datapoints each shown
measured.attribute: inhibition at 0.03 µM (%)

Worked examples, 4 compounds total:
INPUT: Entry Cc1ccc2c(c1)c1c(n2CC(O)c2ccncc2)CN(C)CC1 (stereo not drawn) : reported inhibition at 0.03 µM = ?
OUTPUT: 61

INPUT: Field request: inhibition at 0.03 µM | item: CN1CCc2c(n(CC(O)c3ccncc3)c3ccc(Cl)cc23)C1 (stereo not drawn)
OUTPUT: 45

INPUT: So what's the measured inhibition at 0.03 µM for this one? Cc1ccc2c(c1)c1c(n2CC(O)c2ccc(C#N)cc2)CCNC1 (stereo not drawn)
OUTPUT: 43

INPUT: # input compound: Cc1ccc2c(c1)c1c(n2CC(N=[N+]=[N-])c2ccncc2)CCN(C)C1 (racemic) ; wanted: its inhibition at 0.03 µM
OUTPUT: 88

a: CN1CCc2c(c3cc(Cl)ccc3n2CC(O)c2ccncc2)C1 (stereo not drawn)
b: Cc1ccc2c(c1)c1c(n2CC(O)c2ccncc2)C(C)N2CCC1C2 (stereo not drawn)
INPUT: Field: lower inhibition at 0.03 µM | Options: a / b Refer to your chosen entry by its label in the reply.
OUTPUT: b
